molecular target: Cyclin-dependent kinase 1/cyclin B1 (Homo sapiens, UniProt P06493); experiment: Inhibition of CDK1/cyclin B (unknown origin)
Sequence (P06493 whole entry): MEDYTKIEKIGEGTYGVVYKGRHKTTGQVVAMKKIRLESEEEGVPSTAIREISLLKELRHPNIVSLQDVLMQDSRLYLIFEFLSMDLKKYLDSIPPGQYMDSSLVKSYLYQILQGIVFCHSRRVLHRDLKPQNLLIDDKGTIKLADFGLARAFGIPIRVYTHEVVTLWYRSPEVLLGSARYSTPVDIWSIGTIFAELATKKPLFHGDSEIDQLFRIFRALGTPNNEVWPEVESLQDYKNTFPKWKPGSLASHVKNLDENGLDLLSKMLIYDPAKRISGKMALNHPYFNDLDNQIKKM
Sequence (P14635 whole entry, further chain): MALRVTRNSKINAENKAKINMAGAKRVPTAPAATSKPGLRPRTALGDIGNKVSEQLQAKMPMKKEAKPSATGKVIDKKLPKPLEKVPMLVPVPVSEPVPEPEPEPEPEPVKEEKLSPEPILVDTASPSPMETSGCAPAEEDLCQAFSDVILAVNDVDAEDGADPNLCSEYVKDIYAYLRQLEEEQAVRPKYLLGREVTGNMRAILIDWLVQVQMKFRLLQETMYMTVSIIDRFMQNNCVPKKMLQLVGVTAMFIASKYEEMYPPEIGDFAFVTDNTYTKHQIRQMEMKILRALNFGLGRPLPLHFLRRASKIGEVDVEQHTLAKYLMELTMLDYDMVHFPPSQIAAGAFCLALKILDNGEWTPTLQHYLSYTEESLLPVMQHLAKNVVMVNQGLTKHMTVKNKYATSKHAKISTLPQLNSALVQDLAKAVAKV
property name: IC50

Query: Using the record for CC(=O)c1c(C)c2cnc(Nc3ccc(N4CCN(C(=O)CCl)CC4)cn3)nc2n(C2CCCC2)c1=O , state its measured IC50.
Reply: > 10 µM

====

target: Cyclin-dependent kinase 4/cyclin D1 (Homo sapiens) (UniProt P11802+P24385); test: Inhibition of CDK4/Cyclin D1 (unknown origin) at 20 nM using ATP by mobility shift assay; format: protein-complex assay
Measured inhibition by item
The figure you give is taken to be in %; do not add the unit.

Query: Using the record for CC(=O)c1c(C)c2cnc(Nc3ccc(N4CCN(CC(=O)NCCOCCNC(=O)CCl)CC4)cn3)nc2n(C2CCCC2)c1=O , state its measured inhibition.
Reply: 61.4

Query: Using the record for CC(=O)c1c(C)c2cnc(Nc3ccc(N4CCN(CC(=O)NCCCNC(=O)CCl)CC4)cn3)nc2n(C2CCCC2)c1=O , state its measured inhibition.
Reply: 56.9

Query: Using the record for CCC(=O)N1CCN(c2ccc(Nc3ncc4c(C)c(C(C)=O)c(=O)n(C5CCCC5)c4n3)nc2)CC1 , state its measured inhibition.
Reply: 43

Query: Using the record for CC(=O)c1c(C)c2cnc(Nc3ccc(N4CCN(CC(=O)NCCCCNC(=O)CCl)CC4)cn3)nc2n(C2CCCC2)c1=O , state its measured inhibition.
Reply: 63

====

system: MDA-MB-231; experiment: Antiproliferative activity against human MDA-MB-231 cells assessed as reduction in cell viability after 72 hrs by MTT assay; format: functional, cell-based; settings: MDA-MB-231, 72 h
property name: IC50

Query: Using the record for C=CC(=O)NCCCCNC(=O)CCN1CCN(c2ccc(Nc3ncc4c(C)c(C(C)=O)c(=O)n(C5CCCC5)c4n3)nc2)CC1 , state its measured IC50.
Reply: > 20 µM

Query: Using the record for CC(=O)c1c(C)c2cnc(Nc3ccc(N4CCN(CC(=O)NCCOCCNCC#N)CC4)cn3)nc2n(C2CCCC2)c1=O , state its measured IC50.
Reply: > 20 µM

Query: Using the record for C=CC(=O)NCCNC(=O)CN1CCN(c2ccc(Nc3ncc4c(C)c(C(C)=O)c(=O)n(C5CCCC5)c4n3)nc2)CC1 , state its measured IC50.
Reply: 18.7 µM

Query: Using the record for C=CC(=O)NCCCNC(=O)CN1CCN(c2ccc(Nc3ncc4c(C)c(C(C)=O)c(=O)n(C5CCCC5)c4n3)nc2)CC1 , state its measured IC50.
Reply: 18 µM

Query: Using the record for CC(=O)c1c(C)c2cnc(Nc3ccc(N4CCN(CCC(=O)NCCCNC(=O)CCl)CC4)cn3)nc2n(C2CCCC2)c1=O , state its measured IC50.
Reply: 9.67 µM

====

molecular target: CDK6/cyclin D3 (Homo sapiens) (UniProt P30281+Q00534); assay: Inhibition of CDK6/Cyclin D3 (unknown origin) at 20 nM using ATP by mobility shift assay; format: protein-complex assay
Measured inhibition by item

CC(=O)c1c(C)c2cnc(Nc3ccc(N4CCN(CC(=O)NCCCCCCNC(=O)CCl)CC4)cn3)nc2n(C2CCCC2)c1=O : 71.3%
CC(=O)c1c(C)c2cnc(Nc3ccc(N4CCN(C(C)=O)CC4)cn3)nc2n(C2CCCC2)c1=O : 68.5%

Query: Under CDK6/cyclin D3 (Homo sapiens) (UniProt P30281+Q00534): report inhibition of CC(=O)c1c(C)c2cnc(Nc3ccc(N4CCN(CC(=O)NCCOCCNC(=O)CCl)CC4)cn3)nc2n(C2CCCC2)c1=O .
Reply: 76.7%
